- testName: soluble fraction after stress (log2 fold change); higher = more stays soluble; pooled small domains, quantitative proteomics
- conditionInfo: stress: 50 degC
Please mark label 1 if the recorded soluble fraction (log2) is equal to or greater than -0.5, and label 0 if it falls below.

sequenceData	assignedLabel
HMPQGFEDLTEREREVLTLIAEGRTNQEIADALVISIKTVNRHRENIMAKLNLHSRVELVRYAIAQGLI	label 1
HMASIGTATVTADNLRLRSEAGTGAETLTMAPKGAEVTVEEDAGDGWYKVTYGDTEGYMSGEWLKITLA	label 1
HMTRNEFLTALRGRLSALPKEEQDAALKYYEEYFDEAESEEDAARQLGSPDSIAEKILADYA	label 1
HMQVRVERSRDKVVISGVNYYIHPVRKGETVYSIARAYGITTQDLVRENPSAAEGLKEGQSIRIPERLVD	label 1
HMHSKQRDAIFENLRSRKDHPTAEEIYLSLKPAMPAISLATVYRNLAQLENEGLILRLGSGGSARYDGDT	label 1
HMSAPLKELGNDPESGKPIVVKDGRFGAYVTDGETNATLRKTDAVESLTPERAAELLAEKRAKG	label 1
HMPEPAPALPAKTRVSIRRETGGIIWHEGAWTISPPIRAYDGRWYVAVTTARKGIEFVPVSSVIRS	label 0
HMKNIMRQWIELEPDQGKIRSKLYSLDRVVEETTNEVGMIKLLLEIDEKELNNLVSHNDIRLV	label 1
HMGTRHPLPYAYARANTVLLEDDGDRLVLWAPENVSLTALGEVLRRFDVDALERESSSTLANRIAVAYAG	label 0
HMSIAEMSGARKSAILLLALDEDSAAEIFKYLSAGEVQEISMEMAKLNQVSHDDMKAVLEAFHKETEEFV	label 0
HMFGGIEFGWSQLPDGRVEYIIQLDDQAIAALKNGRSLTSSLPPEVQNADRIRIQYGAGPVEKGLLLQ	label 1
HMDLLKANNLSQINVDKLTDEEILKYSQQLKQSGLTESQAEQIAIARGMPATEIAKLKQRLISLTNMQ	label 1
HMKWIEILKSKDGNYALLQDEKDTQFVVASGYNPDAAEDQKWGHGSYFIYWNNKENKAEMLMNAIDLFRYR	label 0
HMTPQNAAAVLRYLSSGAIKGVGPSTAQRIVEKFGAESLDIIQNKPEELATIRGISLSKALAVSEEYNKQY	label 1
HMDENTEQESQTVVVPDVTGKSLSEAASILREAGLDYLAEQTGTVVTKQMPLPDAEVLINTTVLLYTDSE	label 1
HMGEYGVLWYLLTKKEAVSAGELKEKLHVVPGRMTDILTALEKKGLIIRQKNKTDKRVVDVVLTKEGEKEA	label 1

###

- testName: soluble fraction after stress (log2 fold change); higher = more stays soluble; pooled small domains, quantitative proteomics
- conditionInfo: stress: 50 degC
Overview of recorded soluble fraction (log2) for various sequences
metric: soluble fraction (log2)

sequenceData	experimentalResult
HMKTYEILFDILSRESDYISGEKLAQELGISRTSIWKAIQHLEKEGVHIESVKNKGYKLLSGDLLIAEKI	-1.14
HMDIESREAWVDASGMGVRLDRWLTQLAPEFSRNHLQSLIERGAVRVDGQPALVASRKLRIGQQVAVSLIP	-0.868
HMDMQMPIMNGLEFLERINLTLDDNFSIIVLTGKIEDKSIEKSFELGINAYLRKPFNIYALLGIVRQN	-0.0848
HMHTADDFKQLAKQTSNGQLRTRYLALYLFKNGETRTQIATYLGVARGSVNTWVSNYLAHGLEGLQSKP	-2.65
HMTKQDYLTALQQELNKNAVADAEDIVSEYEQHFQFKLADGFTEEEIAAKLGAPAQIALQFAG	0.167
HMSAVIGTATVTTSSGSLNLRESASLYSRVIRTIPRGATVDVLSRDTSWSRVRYAGSEGYVLNQYLTFQT	-0.0809
HMTVSLLQTRQRLQALADLGHYKGDLGAAWGPDAIEALKKAQATLGVTVDGKWGPQTEDAIQVALKVQ	-0.284
HMNKNQIGTNAGIVWKLLSDNVHWEYDKLKHASGLSDRDLNAAIGWLAREDKIDFDIDEQHDRLFL	-0.395
HMSAMKYTSEVFQRLSRGQFISSNSIDAETRAIYSDIEENQQEYEDYFSKIDFLLSSGDGFYYFSRK	-2.4
HMPFDRTVQLAGARARQLQALPRYREVLRLLDEGMNPREIGQVLDPPVTRQRASALIQQAKRAQMLGLFED	-0.857
HMKDEHYLYIKARVDNGDYPHLSELKSAEEIELVMPKLLQDGIVEFNKETGEYTIGEDVKAEIERL	0.108
HMQEKQIIDGREFYIHQVERGITLYSIAKQYNVKVADIQAENPFLEAGLQPGQTLKIPLDKVETVQEIK	0.125
HMAVQPMDQVKAWLAEDNPADIKLLVPVLQKLDLLDYEQVRGEVADRAGVRKSLLDEAVKGN	0.0999
HMQVSDEGPIKAILQEVLDKSPTQLADYASGKVKLRQYFFGEAMKALKGKANPQVINKLLDEMLPPVAA	0.079
HMSDPEAFIRQTVAAAEPEGIALSVLGKRVRGKFRTFKLRDLGYAQFRPYLGDLDGIKVEQRDGQSYARLD	-0.795
HMVEMSNMELVREQYFQNLIYNVGDWVKDSKTEITGEVVKRGTNYLTIVQEDFTLHKVWLEDAESME	-0.581
HMGKSETALELIKRGHRLIADDAVEITRIGSTLSGTAPELIRNYLEVRGVGVIDVEKLFGVGAVQDSTQI	0.0401
